Target: T1R umami taste receptor (Homo sapiens, UniProt Q7RTX0+Q7RTX1)
Sequence (Q7RTX1 21-841): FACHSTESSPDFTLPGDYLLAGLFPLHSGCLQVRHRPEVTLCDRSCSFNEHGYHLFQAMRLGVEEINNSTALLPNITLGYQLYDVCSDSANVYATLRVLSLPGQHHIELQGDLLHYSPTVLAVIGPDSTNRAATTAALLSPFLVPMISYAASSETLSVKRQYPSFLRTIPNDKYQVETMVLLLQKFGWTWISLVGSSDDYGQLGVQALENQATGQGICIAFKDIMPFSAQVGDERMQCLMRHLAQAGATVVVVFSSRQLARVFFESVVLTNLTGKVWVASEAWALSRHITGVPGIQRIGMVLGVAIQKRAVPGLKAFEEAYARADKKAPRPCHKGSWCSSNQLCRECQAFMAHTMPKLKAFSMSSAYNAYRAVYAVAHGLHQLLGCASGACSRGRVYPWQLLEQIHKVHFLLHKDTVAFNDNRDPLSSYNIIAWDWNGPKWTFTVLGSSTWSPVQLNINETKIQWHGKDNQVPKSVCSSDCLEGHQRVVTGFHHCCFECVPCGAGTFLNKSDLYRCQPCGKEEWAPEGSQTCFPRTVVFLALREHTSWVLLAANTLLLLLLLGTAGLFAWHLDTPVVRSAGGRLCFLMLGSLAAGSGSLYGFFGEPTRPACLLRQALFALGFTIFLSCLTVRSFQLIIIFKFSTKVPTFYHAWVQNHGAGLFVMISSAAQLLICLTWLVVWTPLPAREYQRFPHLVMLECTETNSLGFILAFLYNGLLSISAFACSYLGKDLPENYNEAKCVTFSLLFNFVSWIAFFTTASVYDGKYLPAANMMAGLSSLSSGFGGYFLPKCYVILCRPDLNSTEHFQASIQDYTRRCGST
Sequence (Q7RTX0 21-852): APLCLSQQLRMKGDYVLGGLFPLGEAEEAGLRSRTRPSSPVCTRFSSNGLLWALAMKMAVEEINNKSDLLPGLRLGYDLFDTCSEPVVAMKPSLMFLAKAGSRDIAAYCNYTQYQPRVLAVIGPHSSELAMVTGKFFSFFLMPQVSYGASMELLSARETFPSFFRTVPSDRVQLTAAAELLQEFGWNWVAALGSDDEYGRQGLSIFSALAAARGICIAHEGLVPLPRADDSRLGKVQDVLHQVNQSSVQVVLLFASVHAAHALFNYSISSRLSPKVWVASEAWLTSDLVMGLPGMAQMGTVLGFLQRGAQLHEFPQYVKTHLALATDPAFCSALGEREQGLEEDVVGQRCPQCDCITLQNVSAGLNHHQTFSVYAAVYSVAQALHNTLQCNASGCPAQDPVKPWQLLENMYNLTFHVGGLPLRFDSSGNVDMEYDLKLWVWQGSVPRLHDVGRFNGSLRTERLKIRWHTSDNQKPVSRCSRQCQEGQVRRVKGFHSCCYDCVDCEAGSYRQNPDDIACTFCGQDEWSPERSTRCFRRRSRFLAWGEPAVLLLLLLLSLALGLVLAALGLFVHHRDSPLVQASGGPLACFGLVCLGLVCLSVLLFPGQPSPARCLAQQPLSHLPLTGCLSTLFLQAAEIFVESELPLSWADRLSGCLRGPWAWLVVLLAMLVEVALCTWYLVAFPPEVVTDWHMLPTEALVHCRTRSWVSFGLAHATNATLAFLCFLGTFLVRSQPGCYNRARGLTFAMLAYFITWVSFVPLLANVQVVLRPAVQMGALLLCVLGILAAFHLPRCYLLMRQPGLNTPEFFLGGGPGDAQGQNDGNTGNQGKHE
Assay: in vitro cell-based assay having cells that express the T1R umami taste receptor (enhancement of MSG)
Conditions: cells expressing T1R umami taste receptor; read-out: EC50 for enhancement of MSG binding
EXPERIMENTAL_READOUT: EC50

In [3]: df
Out[3]:
                                   molecule  reading
0  C=C(C)C1CC=C(C(=O)N[C@@H](Cc2ccccc2)C(=O)OC)CC1 (stereo partly shown) [Compound 166]  > 50 µM

Prompt line: Fill in: EC50 on T1R umami taste receptor (Homo sapiens, UniProt Q7RTX0+Q7RTX1), entry COC(=O)CC[C@H](NC(=O)/C=C/C(C)C)C(=O)OC [Compound 173]
Response line: > 50 µM

Prompt line: Fill in: EC50 on T1R umami taste receptor (Homo sapiens, UniProt Q7RTX0+Q7RTX1), entry C/C=C/C=C/C(=O)N[C@@H](Cc1ccccc1)C(=O)OCC [Compound 180]
Response line: > 50 µM

Prompt line: Fill in: EC50 on T1R umami taste receptor (Homo sapiens, UniProt Q7RTX0+Q7RTX1), entry COC(=O)[C@@H](NC(=O)c1ccc(OC)c(OC)c1)C(C)C [Compound 124, Methyl (3,4-dimethoxybenzoyl)-L-valinate]
Response line: > 50 µM
